System: CAKI-1
EXPERIMENT_NOTES: Cytotoxicity against human CAKI-1 cells assessed as cell viability at 10 uM incubated for 48 hrs by sulforhodamine B assay relative to control
Type: functional
MEASUREMENT_PARAMETERS: read-out: Activity
# viability at 10 µM annotations
Numeric only. Scale: %

[
  {
    "COMPOUND_SMILES": "O=S(=O)(NCCCNc1nccc(-c2c(-c3cccc(F)c3)nc3sccn23)n1)c1ccc(O)cc1",
    "viability at 10 µM / %": 51.9
  },
  {
    "COMPOUND_SMILES": "O=S(=O)(NCCNc1nccc(-c2c(-c3cccc(F)c3)nc3sccn23)n1)c1ccc(Br)cc1",
    "viability at 10 µM / %": 35.1
  },
  {
    "COMPOUND_SMILES": "O=C(NCCNc1nccc(-c2c(-c3cccc(F)c3)nc3sccn23)n1)c1c(F)cccc1F",
    "viability at 10 µM / %": 34.5
  },
  {
    "COMPOUND_SMILES": "O=C(NCCNc1nccc(-c2c(-c3cccc(F)c3)nc3sccn23)n1)c1ccc(C(F)(F)F)cc1",
    "viability at 10 µM / %": 55
  },
  {
    "COMPOUND_SMILES": "O=S(=O)(NCCNc1nccc(-c2c(-c3cccc(F)c3)nc3sccn23)n1)c1ccc(F)cc1",
    "viability at 10 µM / %": 41.3
  }
]

Item: O=C(NCCNc1nccc(-c2c(-c3cccc(F)c3)nc3sccn23)n1)c1ccc(Cl)cc1 | System: CAKI-1 | viability at 10 µM: 41.5

Item: O=S(=O)(NCCCNc1nccc(-c2c(-c3cccc(F)c3)nc3sccn23)n1)c1ccc(Br)cc1 | System: CAKI-1 | viability at 10 µM: 50.3

====

# IC50 annotations
System: A-375
EXPERIMENT_NOTES: Cytotoxicity against human A-375 cells assessed as reduction in cell viability by MTT assay
Assay type: functional, cell-based
Numeric only. Scale: µM

Illustrative cases are given below, each with its answer.
[
  {
    "COMPOUND_SMILES": "O=S(=O)(NCCCNc1nccc(-c2c(-c3cccc(F)c3)nc3sccn23)n1)c1ccc(Cl)cc1",
    "IC50 [µM]": 5.9
  },
  {
    "COMPOUND_SMILES": "O=S(=O)(NCCCNc1nccc(-c2c(-c3cccc(F)c3)nc3sccn23)n1)c1ccccc1",
    "IC50 [µM]": 6.6
  }
]

// IC50 lookup, molecule = Cc1ccc(S(=O)(=O)NCCNc2nccc(-c3c(-c4cccc(F)c4)nc4sccn34)n2)cc1 , result: 15.4

// IC50 lookup, molecule = O=S(=O)(NCCNc1nccc(-c2c(-c3cccc(F)c3)nc3sccn23)n1)c1ccc(C(F)(F)F)cc1 , result: 7.44

// IC50 lookup, molecule = O=C(NCCNc1nccc(-c2c(-c3cccc(F)c3)nc3sccn23)n1)c1ccc(C(F)(F)F)cc1 , result: 8.71

====

System: K562
EXPERIMENT_NOTES: Cytotoxicity against human K562 cells assessed as cell viability at 10 uM incubated for 48 hrs by sulforhodamine B assay relative to control
Format: functional
MEASUREMENT_PARAMETERS: read-out: Activity
ASSAY_METRIC: viability at 10 µM (%)
Numeric only. Scale: %

[
  {
    "COMPOUND_SMILES": "O=C(NCCCNc1nccc(-c2c(-c3cccc(F)c3)nc3sccn23)n1)c1ccc(F)cc1",
    "viability at 10 µM (%)": 75.7
  }
]

Please find the next compound below.
// viability at 10 µM lookup, compound = O=S(=O)(NCCNc1nccc(-c2c(-c3cccc(F)c3)nc3sccn23)n1)c1ccc(Br)cc1 , result: 38.7
